- target of assay: 53BP1 GAR-Tudor (Homo sapiens, UniProt Q12888 1288-1659)
- Sequence (Q12888 1288-1659): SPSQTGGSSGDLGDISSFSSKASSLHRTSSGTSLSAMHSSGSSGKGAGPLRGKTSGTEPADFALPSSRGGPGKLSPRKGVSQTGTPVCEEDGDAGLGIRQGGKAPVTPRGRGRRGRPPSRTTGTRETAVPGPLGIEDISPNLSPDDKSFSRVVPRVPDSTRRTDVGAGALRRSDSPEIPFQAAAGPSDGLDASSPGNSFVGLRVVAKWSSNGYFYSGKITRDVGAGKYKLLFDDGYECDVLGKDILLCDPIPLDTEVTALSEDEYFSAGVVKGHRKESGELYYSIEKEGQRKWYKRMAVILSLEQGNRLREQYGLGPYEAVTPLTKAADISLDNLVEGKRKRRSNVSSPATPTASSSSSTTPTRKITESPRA
- assay overview: SPR
readout: Kd

Asked: Look up Kd: GCUGCGGUGUGGAAGGAGUGGUCGGGUUGCGCAGCG (structured_RNA) [SC1 RNA, biotinylated]
Given back: ~8 nM

// data source = paper doi:10.1101/2023.09.27.559698
